Data credit: patent US10913710B2

target: PDEδ (Homo sapiens (Human), UniProt O43924); experiment: Fluorescence polarization competition binding assay: displacement titration of labeled Atorvastatin probe for KD; conditions: fluorescence polarization assay; activity classes; read-out: KD
experimental endpoint: Kd

Please review the following examples before continuing.
compound="O=S(=O)(NCC1CCCO1)c1ccc(S(=O)(=O)N(Cc2ccccc2)Cc2ccc(Cl)cc2)cc1 (stereo not shown) [Compound 62]" test_value="0.1 to 1 µM"
compound="COc1ccc(CN(Cc2ccc3c(c2)OCO3)S(=O)(=O)c2ccc(S(=O)(=O)NC3CCCCC3)cc2)cc1OC [Compound 75]" test_value="> 1 µM"
compound="O=S(=O)(c1ccc(S(=O)(=O)N(Cc2ccc(F)cc2)Cc2ccc(F)cc2)cc1)N1CCCCC1 [Compound 78]" test_value="0.1 to 1 µM"
compound="O=S(=O)(NC1CCCCC1)c1ccc(S(=O)(=O)N(Cc2ccccc2)CC2CCCO2)cc1 (stereo not shown) [Compound 65]" test_value="0.001 to 0.03 µM"
compound="O=S(=O)(c1ccc(S(=O)(=O)N(Cc2ccccn2)C2CCCO2)cc1)N(Cc1ccccn1)C1CCCO1 (stereo not shown) [Compound 1]" test_value="0.1 to 1 µM"
compound="Cc1ccc(CN(C2CCCC2)S(=O)(=O)c2ccc(S(=O)(=O)N(Cc3ccccn3)c3sccc3C)cc2)cc1 [Compound 42]" test_value="0.1 to 1 µM"

*Q* Give Kd for O=S(=O)(c1ccc(S(=O)(=O)N(Cc2ccc(Cl)cc2)C2CCCC2)cc1)N(Cc1cccc(Br)c1)CC1CCCCC1 [Compound 35]
*A* 0.03 to 0.1 µM

----------
target: PDEδ (Homo sapiens (Human)); test: Fluorescence polarization competition binding assay: displacement titration of labeled Atorvastatin probe for KD; conditions: fluorescence polarization assay; activity classes; read-out: KD
pKd: −log10 of the molar value.
Attribute: pKd

compound="O=S(=O)(NC1CCCCC1)c1ccc(S(=O)(=O)N(Cc2ccccc2)Cc2ccco2)cc1 [Compound 54]" experimental_endpoint=pKd test_value="6.00 to 7.00"
compound="O=S(=O)(NC1CCCC1)c1ccc(S(=O)(=O)N(Cc2ccc(F)cc2)Cc2ccccc2F)cc1 [Compound 53]" experimental_endpoint=pKd test_value="6.00 to 7.00"
compound="CC1CCCN(S(=O)(=O)c2ccc(S(=O)(=O)N(Cc3ccccc3Cl)CC3CCCO3)cc2)C1 (centres unmarked) [Compound 50]" experimental_endpoint=pKd test_value="7.00 to 7.52"
compound="COC(=O)c1ccc(CN(CC2CCNCC2)S(=O)(=O)c2ccc(S(=O)(=O)N(Cc3ccc(Cl)cc3)C3CCCC3)cc2)cc1N [Compound 23]" experimental_endpoint=pKd test_value="7.52 to 9.00"
compound="CC1CCCN(S(=O)(=O)c2ccc(S(=O)(=O)N(Cc3ccccc3F)C3CCCC3)cc2)C1 (centres unmarked) [Compound 58]" experimental_endpoint=pKd test_value="7.00 to 7.52"

*Q* Supply pKd value. Item: CCN(Cc1ccccc1)S(=O)(=O)c1ccc(S(=O)(=O)N(Cc2ccccc2F)CC2CCCO2)cc1 (centres unmarked) [Compound 55]
*A* 7.52 to 9.00

*Q* Consider the compound COc1ccc(CN(C2CCCCC2C)S(=O)(=O)c2ccc(S(=O)(=O)N(C)C3CCCCC3)cc2)cc1OC (centres unmarked) [Compound 57] and give its recorded pKd.
*A* 6.00 to 7.00

*Q* Query pKd for CN(C1CCCCC1)S(=O)(=O)c1ccc(S(=O)(=O)N(Cc2ccc(F)cc2)C2CC2)cc1 [Compound 83]
*A* 7.00 to 7.52

*Q* Name the recorded pKd of the compound listed here: O=S(=O)(c1ccc(S(=O)(=O)N(Cc2ccc(Cl)cc2)C2CCCC2)cc1)N(Cc1ccccc1)CC1CCCCC1 [Compound 9]
*A* 7.52 to 9.00

*Q* Please indicate pKd recorded for O=S(=O)(NCC1CCCCC1)c1ccc(S(=O)(=O)N(Cc2ccc(Cl)cc2)C2CCCC2)cc1 [Compound 8]
*A* 7.00 to 7.52

*Q* Find the measured pKd of Nc1ccc(Br)c(CN(CC2CCNCC2)S(=O)(=O)c2ccc(S(=O)(=O)N(Cc3ccc(Cl)cc3)C3CCCC3)cc2)c1 [Compound 2] and report it.
*A* 6.00 to 7.00

*Q* Indicate the recorded pKd value for this compound: O=S(=O)(NC1CCCC1)c1ccc(S(=O)(=O)N(Cc2ccccc2)Cc2ccccn2)cc1 [Compound 92]
*A* 7.52 to 9.00

*Q* Give the value of pKd reported for the following: CCN(CC)S(=O)(=O)c1ccc(S(=O)(=O)N(Cc2ccc(F)cc2)Cc2cccc(OC)c2OC)cc1 [Compound 87]
*A* < 6.00

*Q* Please give the documented pKd of O=S(=O)(NC1CCCC1)c1ccc(S(=O)(=O)N(Cc2ccccc2)Cc2ccccc2Cl)cc1 [Compound 98]
*A* 7.52 to 9.00

*Q* Find the measured pKd of O=S(=O)(c1ccc(S(=O)(=O)N(Cc2ccc(Cl)cc2)CC2CCCO2)cc1)N1CCCCC1 (centres unmarked) [Compound 82] and report it.
*A* 6.00 to 7.00

*Q* // fetch pKd given entry CC(C)(C)[Si](C)(C)OCCCN(CC1CCCCC1)S(=O)(=O)c1ccc(S(=O)(=O)N(Cc2ccc(Cl)cc2)C2CCCC2)cc1 [Compound 29]
*A* 6.00 to 7.00

*Q* Look up and report measured pKd for this entry: CC(C)(C)OC(=O)N1CCC(CN(Cc2ccccc2)S(=O)(=O)c2ccc(S(=O)(=O)N(Cc3cc(Br)cc(Br)c3)C3CCCC3)cc2)CC1 [Compound 4]
*A* 6.00 to 7.00

*Q* Given COc1ccc(CN(Cc2ccc(C)cc2)S(=O)(=O)c2ccc(S(=O)(=O)N(C)Cc3ccccc3)cc2)cc1 [Compound 73] , respond with its pKd.
*A* 6.00 to 7.00

*Q* Read off the recorded pKd for O=S(=O)(c1ccc(S(=O)(=O)N(Cc2ccc(Cl)cc2)C2CCCC2)cc1)N(CCCO)CC1CCCCC1 [Compound 32]
*A* 7.00 to 7.52

*Q* Answer with the recorded pKd for the compound listed here: O=S(=O)(NCc1ccccc1)c1ccc(S(=O)(=O)N(Cc2ccc(Cl)cc2)Cc2ccco2)cc1 [Compound 90]
*A* 6.00 to 7.00

*Q* Fill in reported pKd for this entry: O=S(=O)(c1ccc(S(=O)(=O)N(Cc2cnc(Cl)cn2)C2CCCC2)cc1)N(Cc1ccccc1)CC1CCNCC1 [Compound 12]
*A* 7.52 to 9.00

*Q* Supply reported pKd belonging to this compound: O=S(=O)(NCC1CCCO1)c1ccc(S(=O)(=O)N(Cc2ccccc2)Cc2ccccc2F)cc1 (centres unmarked) [Compound 77]
*A* 6.00 to 7.00

*Q* Quick one: give measured pKd for CCOc1ccccc1CN(Cc1ccco1)S(=O)(=O)c1ccc(S(=O)(=O)NC2CCCCC2)cc1 [Compound 76]
*A* 6.00 to 7.00

*Q* Please give the documented pKd of CC(C)c1ccc(CN(CC2CCCO2)S(=O)(=O)c2ccc(S(=O)(=O)N(C)C3CCCCC3)cc2)cc1 (centres unmarked) [Compound 56]
*A* 7.52 to 9.00

*Q* # return recorded pKd for input CNc1ncc(Br)c(CN(CC2CCCCC2)S(=O)(=O)c2ccc(S(=O)(=O)N(Cc3ccc(Cl)cc3)C3CCCC3)cc2)n1 [Compound 5]
*A* 7.00 to 7.52

*Q* Read off the recorded pKd for COc1ccc(CN(C2CCCCC2C)S(=O)(=O)c2ccc(S(=O)(=O)NCc3ccccc3)cc2)cc1OC (centres unmarked) [Compound 70]
*A* 6.00 to 7.00

*Q* Answer with the recorded pKd of O=S(=O)(c1ccc(S(=O)(=O)N(Cc2ccc(Cl)cc2)C2CCCC2)cc1)N(CCO)CC1CCCCC1 [Compound 31] only.
*A* 7.00 to 7.52

*Q* Annotate the compound O=S(=O)(NCc1ccccc1)c1ccc(S(=O)(=O)N(Cc2ccco2)Cc2ccccc2F)cc1 [Compound 66] with its measured pKd.
*A* < 6.00

*Q* State its pKd for this compound: CN(C)S(=O)(=O)c1ccc(S(=O)(=O)N(Cc2ccc(Cl)cc2)Cc2ccco2)cc1 [Compound 71]
*A* < 6.00

----------
Target: PDEδ (Homo sapiens (Human))
Experiment: Fluorescence polarization competition binding assay: displacement titration of labeled Atorvastatin probe for KD
Protocol: Example D.2: Displacement Titrations of Labeled Atorvastatin-Probe for the Determination of KD Values Displacement Titrations of Labeled Atorvastatin-Probe for the Determination of KD Values: The purification was followed by size exclusion gel filtration on a Superdex 75 S26/60 column using buffer A (25 mM Tris-HCl, pH 7.5, 150 mM NaCl and 3 mM DTE).
experimental endpoint: Kd

*Q* Please list Kd recorded for the compound CC(C)(C)[Si](C)(C)Oc1ccc(CNS(=O)(=O)c2ccc(S(=O)(=O)N(Cc3ccc(Cl)cc3)C3CCCC3)cc2)cc1 [Compound 15]
*A* 30 to 100 nM
